Data provenance is patent US20250154141A1.

# Test system: RS4; 11
# PROCEDURE_DETAILS: Cell viability assay (MTS) in RS4; 11 cells
# Format: cell-based
# DETAILS: Homo sapiens, RS4-11; Table 2; 48 hr; MTS; read-out: Anti-Cancer Activity IC50 (48 hr) RS4; 11
pIC50: −log10 of the molar value.
REPORTED_PROPERTY: pIC50

Query: Recorded pIC50 of `Cc1ncsc1-c1ccc([C@H](C)NC(=O)[C@@H]2C[C@@H](O)CN2C(=O)[C@@H](NC(=O)CCCCCCC(=O)N2CCN(C[C@]3(C)CCC(c4ccc(Cl)cc4)=C(CN4CCN(c5ccc(C(=O)NS(=O)(=O)c6ccc(N[C@H](CCN7CCCOCC7)CSc7ccccc7)c(S(=O)(=O)C(F)(F)F)c6)cc5)CC4)C3)C[C@@H]2C)C(C)(C)C)cc1` , please.
Reply: 7.00 to 7.70

Query: Recorded pIC50 of `Cc1ncsc1-c1ccc([C@H](C)NC(=O)[C@@H]2C[C@@H](O)CN2C(=O)[C@@H](NC(=O)CCCCCCC(=O)N2CCN(C[C@]3(C)CCC(c4ccc(Cl)cc4)=C(CN4CCN(c5ccc(C(=O)NS(=O)(=O)c6ccc(N[C@H](CCN7CCCCC7)CSc7ccccc7)c([N+](=O)[O-])c6)cc5)CC4)C3)CC2)C(C)(C)C)cc1` , please.
Reply: > 7.70

Query: Recorded pIC50 of Cc1ncsc1-c1ccc([C@H](C)NC(=O)[C@@H]2C[C@@H](O)CN2C(=O)[C@@H](NC(=O)CCCCCCCNC(=O)c2ccc(N3CCN(CC4(C)CCC(c5ccc(Cl)cc5)=C(CN5CCN(c6ccc(C(=O)NS(=O)(=O)c7ccc(N[C@H](CCN8CCOCC8)CSc8ccccc8)c(S(=O)(=O)C(F)(F)F)c7)cc6)CC5)C4)CC3)cn2)C(C)(C)C)cc1 (stereo partly drawn) , please.
Reply: 6.30 to 7.00
